Assay: Stability in rat plasma
Settings: 37° C., 30 minutes
Recorded metric: Percentage of the compound remaining in plasma (%)

COC(=O)[C@H](Cc1ccccc1)NC(=O)OCOc1ccc([N+](=O)[O-])c2cccnc12; 0.0

A. O=[N+]([O-])c1ccc(O)c2ncccc12
B. CCC(C)C(NC(=O)OCOc1ccc([N+](=O)[O-])c2cccnc12)C(=O)OC (stereo not shown)
C. CCC(C)C(C(=O)OC)N(C)C(=O)OCOc1ccc([N+](=O)[O-])c2cccnc12 (stereo not shown)
D. CC(C)(C)C(=O)OCOc1ccc([N+](=O)[O-])c2cccnc12 [Compound 4, (5-nitroquinolin-8-yloxy)methyl pivalate]
Exam item: Please put the entries in order of rising Percentage of the compound remaining in plasma. In plain terms: list the labels in the order you were asked to.
Marked response: D, C, B, A
(D: 0.0%, C: 0.1%, B: 24.7%, A: 94.1%)

P. CC1CN(C(=O)OCOc2ccc([N+](=O)[O-])c3cccnc23)CCO1 (stereo not shown)
Q. CCC(CC)C(=O)OC(C)Oc1ccc([N+](=O)[O-])c2cccnc12 (stereo not shown)
R. CCC(CC)C(=O)OCOc1ccc([N+](=O)[O-])c2cccnc12
Exam item: Provide the items ranked by increasing Percentage of the compound remaining in plasma. Would you mind listing the labels in the order requested?
Marked response: R, Q, P

P. C[C@@H]1CN(C(=O)OCOc2ccc([N+](=O)[O-])c3cccnc23)C[C@H](C)O1
Q. CCC(NC(=O)OCOc1ccc([N+](=O)[O-])c2cccnc12)C(=O)OC (stereo not shown)
Exam item: Which of the two gives a bigger number for Percentage of the compound remaining in plasma: P or Q ? Identify your selection by its label.
Marked response: P
